Origin of the recorded values: ChEMBL document CHEMBL4483862

system: Plasmodium berghei; test: Luciferase/luciferin-expressing antifolate-resistant parasites were used to infect a culture of HepG2 cells that were pre-incubated with compounds. Infected hepatocytes emit light due to the luciferase reaction. Assay results are presented as the percent inhibition of light emission compared to control. […]; type: functional; settings: sporozoite, PBLUC_HILL_SLOPE 2.6, PBLUC_R_SQUARED 0.44, read-out: LUCIFERASE INFECTION ASSAY - IC50
READOUT: pIC50
Scale note: pIC50 = -log10(concentration in M).

[ask] Entry Cc1cc(C(=O)N/N=C/c2c(-c3ccccc3)nc3ccccn23)c(C)o1 has what pIC50?
[reply] 5.19
